# target.of.assay: GST-Dm-Relish (Drosophila melanogaster, UniProt Q94527 99-473)
# Sequence: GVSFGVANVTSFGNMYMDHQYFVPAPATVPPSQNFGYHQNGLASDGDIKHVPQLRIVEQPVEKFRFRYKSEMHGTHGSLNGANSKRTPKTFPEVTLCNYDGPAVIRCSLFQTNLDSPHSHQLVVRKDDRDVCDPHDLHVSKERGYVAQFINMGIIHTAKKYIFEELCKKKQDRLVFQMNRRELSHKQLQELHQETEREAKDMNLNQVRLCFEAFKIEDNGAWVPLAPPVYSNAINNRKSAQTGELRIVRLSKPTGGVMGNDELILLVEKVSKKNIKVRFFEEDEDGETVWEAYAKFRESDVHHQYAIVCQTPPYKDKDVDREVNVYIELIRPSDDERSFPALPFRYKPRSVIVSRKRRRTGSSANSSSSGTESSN
# method.summary: protein-binding microarray (PBM); PBM: ~300 nM protein, 6 mM HEPES pH 7.8, 80 mM KCl, 0.5 mM EDTA, 0.5 mM EGTA, 6% glycerol, 35 ng/ul poly-dIdC, 1% milk, 1 h, room temperature; Ap Aiptasia and Nv Nematostella (sea anemones) / Co Capsaspora / Aq Amphimedon (sponge) / Dm Drosophila / Hu human; RHD is the Rel homology domain; high values mean tight binding
# condition.set: dsDNA, one strand shown
Below, each entry is listed with its recorded binding signal.
quantity.measured: binding signal (z-score)

sequence.record	value.reported
CCGATTAACATCAGAAAAGCCCCTGATGTTAATCGGGTCTTGATTCGCTTGACGCTGCTG	8.04
CCGATTAACATCAGGAGTACCCCTGATGTTAATCGGGTCTTGATTCGCTTGACGCTGCTG	3.64
CCGATTAACATCAGGGGGTGTACTGATGTTAATCGGGTCTTGATTCGCTTGACGCTGCTG	8.3
CCGATTAACATCAACATTTTCCCTGATGTTAATCGGGTCTTGATTCGCTTGACGCTGCTG	1.62
CCGATTAACATCAGGGGATACACTGATGTTAATCGGGTCTTGATTCGCTTGACGCTGCTG	5.84
CCGATTAACATCAGATAAACCCCTGATGTTAATCGGGTCTTGATTCGCTTGACGCTGCTG	5.22
CCGATTAACATCAGGGGGATAAATGATGTTAATCGGGTCTTGATTCGCTTGACGCTGCTG	3.78
CCGATTAACATCAAGGAATTACCTGATGTTAATCGGGTCTTGATTCGCTTGACGCTGCTG	5.14
CCGATTAACATCAGTAATTCCCATGATGTTAATCGGGTCTTGATTCGCTTGACGCTGCTG	7.23
CCGATTAACATCAGGGTGTTTTATGATGTTAATCGGGTCTTGATTCGCTTGACGCTGCTG	3.11
CCGATTAACATCAGGAAACCCCCTGATGTTAATCGGGTCTTGATTCGCTTGACGCTGCTG	10.1
CCGATTAACATCAGGAATTTATATGATGTTAATCGGGTCTTGATTCGCTTGACGCTGCTG	1
CCGATTAACATCAGGGAAATTAATGATGTTAATCGGGTCTTGATTCGCTTGACGCTGCTG	2.54
CCGATTAACATCAGGGGAACGCATGATGTTAATCGGGTCTTGATTCGCTTGACGCTGCTG	2.68
CCGATTAACATCAAGGGAATTCCTGATGTTAATCGGGTCTTGATTCGCTTGACGCTGCTG	7.95
CCGATTAACATCAGGGGATTCACTGATGTTAATCGGGTCTTGATTCGCTTGACGCTGCTG	10.3
CCGATTAACATCAAAATCCCCCGTGATGTTAATCGGGTCTTGATTCGCTTGACGCTGCTG	9.89
CCGATTAACATCAAGGGGGGATATGATGTTAATCGGGTCTTGATTCGCTTGACGCTGCTG	4.29
